# TARGET: HiBit-BRG1 fusion protein (Homo sapiens, UniProt P51532)
# Construct: expressed in transfected cells
# Sequence (P51532 whole entry, the tested form may be a part): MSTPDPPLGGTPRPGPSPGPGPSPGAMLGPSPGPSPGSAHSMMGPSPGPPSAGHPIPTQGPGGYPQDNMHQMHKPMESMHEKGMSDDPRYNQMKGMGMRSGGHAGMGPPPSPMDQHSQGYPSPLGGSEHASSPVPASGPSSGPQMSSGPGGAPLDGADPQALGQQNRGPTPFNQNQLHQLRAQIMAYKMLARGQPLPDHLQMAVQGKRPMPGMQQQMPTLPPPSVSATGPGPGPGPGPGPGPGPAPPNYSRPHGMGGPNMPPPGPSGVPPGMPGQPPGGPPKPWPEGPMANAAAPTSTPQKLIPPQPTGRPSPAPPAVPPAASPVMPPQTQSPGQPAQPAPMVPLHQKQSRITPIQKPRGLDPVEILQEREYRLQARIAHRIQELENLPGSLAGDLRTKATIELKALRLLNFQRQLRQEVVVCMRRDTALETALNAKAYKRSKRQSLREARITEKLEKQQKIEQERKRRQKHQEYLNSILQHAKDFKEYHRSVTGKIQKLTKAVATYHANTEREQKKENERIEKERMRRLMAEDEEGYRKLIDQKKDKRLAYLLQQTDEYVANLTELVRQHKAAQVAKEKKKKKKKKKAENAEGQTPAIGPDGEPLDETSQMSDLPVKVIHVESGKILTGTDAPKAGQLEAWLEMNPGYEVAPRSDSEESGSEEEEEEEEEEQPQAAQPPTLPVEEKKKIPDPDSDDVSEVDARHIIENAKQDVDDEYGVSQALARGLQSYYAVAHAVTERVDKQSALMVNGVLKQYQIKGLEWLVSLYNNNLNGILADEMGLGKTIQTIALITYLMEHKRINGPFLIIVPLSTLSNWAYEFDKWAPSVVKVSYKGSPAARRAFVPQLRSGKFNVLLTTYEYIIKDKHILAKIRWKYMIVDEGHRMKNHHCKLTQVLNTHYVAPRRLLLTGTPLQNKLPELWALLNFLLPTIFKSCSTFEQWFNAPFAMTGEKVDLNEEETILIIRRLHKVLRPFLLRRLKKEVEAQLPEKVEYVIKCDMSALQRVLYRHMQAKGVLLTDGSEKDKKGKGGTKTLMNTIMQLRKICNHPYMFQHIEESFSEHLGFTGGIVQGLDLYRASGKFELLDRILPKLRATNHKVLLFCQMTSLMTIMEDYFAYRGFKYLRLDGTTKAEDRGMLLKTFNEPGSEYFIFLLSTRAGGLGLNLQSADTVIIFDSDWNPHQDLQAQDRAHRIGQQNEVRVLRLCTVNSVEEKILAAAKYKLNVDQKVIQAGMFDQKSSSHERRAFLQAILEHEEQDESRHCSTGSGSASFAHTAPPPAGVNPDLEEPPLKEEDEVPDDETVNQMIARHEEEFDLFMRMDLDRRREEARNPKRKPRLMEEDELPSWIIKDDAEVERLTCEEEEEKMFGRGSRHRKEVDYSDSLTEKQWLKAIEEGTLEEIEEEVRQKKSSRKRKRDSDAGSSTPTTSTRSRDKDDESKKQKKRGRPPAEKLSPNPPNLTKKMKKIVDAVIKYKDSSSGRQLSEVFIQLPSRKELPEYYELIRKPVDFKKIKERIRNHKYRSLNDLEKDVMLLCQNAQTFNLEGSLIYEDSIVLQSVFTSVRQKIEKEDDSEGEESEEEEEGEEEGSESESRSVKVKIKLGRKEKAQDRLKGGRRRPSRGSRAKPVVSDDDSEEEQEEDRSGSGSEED
# ASSAY_COMMENT: HiBiT-BRG1 cell-based degradation assay (Nano-Glo HiBiT Lytic Detection, 24 h)
# CONDITION: HeLa cell line expressing HiBit-BRG1 and LgBit, read-out: BRG1 HiBit Degradation Maximum (%)
TEST_READOUT: Dmax

{"columns": ["MOLECULE", "TEST_READOUT", "REPORTED_VALUE"],
 "data": [
  ["Cc1ncsc1-c1ccc(CNC(=O)[C@@H]2C[C@@H](O)CN2C(=O)[C@@H](NC(=O)CCC(=O)N[C@H]2CCc3[nH]c4nnc(-c5ccccc5O)cc4c3C2)C(C)(C)C)cc1 (relative stereo) [Compound 174]", "Dmax", "< 50%"],
  ["Cc1ncsc1-c1ccc([C@H](C)NC(=O)[C@@H]2C[C@@H](O)CN2C(=O)[C@@H](c2cc(-c3cnc(N4CCc5[nH]c6nnc(-c7ccccc7O)cc6c5C4)nc3)no2)C(C)C)cc1 (single isomer, unassigned) [Compound 85]", "Dmax", "> 75%"],
  ["Cc1ncsc1-c1ccc(CNC(=O)[C@@H]2C[C@@H](O)CN2C(=O)[C@@H](NC(=O)CCCCCCCC(=O)N2CC(c3c[nH]c4nnc(-c5ccccc5O)cc34)C2)C(C)(C)C)cc1 [Compound 36]", "Dmax", "< 50%"],
  ["Cc1ncsc1-c1ccc([C@H](C)NC(=O)[C@@H]2C[C@@H](O)CN2C(=O)[C@@H](c2cc(CCN3CC(c4cc5cc(-c6ccccc6O)nnc5[nH]4)C3)no2)C(C)C)cc1 (single isomer, unassigned) [Compound 152]", "Dmax", "< 50%"],
  ["Cc1ncsc1-c1ccc([C@H](C)NC(=O)[C@@H]2C[C@@H](O)CN2C(=O)[C@@H](c2cc(N3CCC(CN4CCc5[nH]c6nnc(-c7ccccc7O)cc6c5[C@@H]4C)CC3)no2)C(C)C)cc1 (racemic) [Compound 83]", "Dmax", "> 75%"],
  ["Cc1ncsc1-c1ccc(CNC(=O)[C@@H]2C[C@@H](O)CN2C(=O)[C@@H](NC(=O)CCCCCCCCCCCCCCCCC(=O)N2CC(c3cc4cc(-c5ccccc5O)nnc4[nH]3)C2)C(C)(C)C)cc1 [Compound 19]", "Dmax", "< 50%"],
  ["Cc1ncsc1-c1ccc([C@H](C)NC(=O)[C@@H]2C[C@@H](O)CN2C(=O)[C@@H](c2cc(N3CCC(C(=O)N4CCc5[nH]c6nnc(-c7ccccc7O)cc6c5[C@@H]4C)CC3)no2)C(C)C)cc1 (racemic) [Compound 86]", "Dmax", "< 50%"],
  ["Cc1ncsc1-c1ccc([C@H](C)NC(=O)[C@@H]2C[C@@H](O)CN2C(=O)[C@@H](c2cc(N3CCC(N4CC(c5cc6cc(-c7ccccc7O)nnc6[nH]5)C4)CC3)no2)C(C)C)cc1 (racemic) [Compound 248]", "Dmax", "> 50%"],
  ["Cc1ncsc1-c1ccc(CNC(=O)[C@@H]2C[C@@H](O)CN2C(=O)[C@@H](NC(=O)CCC(=O)N[C@@H]2CCc3[nH]c4nnc(-c5ccccc5O)cc4c3C2)C(C)(C)C)cc1 [Compound 171]", "Dmax", "< 50%"]
]}

Hey, just so you know, these numbers are from patent US20240024488A1.
